Target: ScSla1-D3
Assay: SPOT peptide array binding signal intensity (averaged, normalized) (arbitrary units (background-subtracted, floor 0; scale differs between SH3 domains)); higher = stronger binding of the SH3 domain to the peptide
Give true (1) when the value for SPOT peptide array binding signal intensity is at least 2. Give false (0) when it is less.

Exercise: Has KDKSRPPRPPPKPLH a recorded SPOT peptide array binding signal intensity greater than or equal to 2?
Solution: true (1)

Exercise: Please check the record GKFIPSRPAPKPPSS and state if its SPOT peptide array binding signal intensity is at or above 2.
Solution: true (1)

Exercise: Reported SPOT peptide array binding signal intensity reaches at least 2 for PAPPPPPRASRPTPN ?
Solution: false (0)

Exercise: Check the entry GTIARPLFLVVLFFI : does SPOT peptide array binding signal intensity equal or exceed 2?
Solution: false (0)

Exercise: SPOT peptide array binding signal intensity >= 2 for AVPPPPPPPPLPESL ?
Solution: false (0)

These data points were gathered from the supplement of paper PMC4466140.
